Recorded inhibition of SARS-CoV-2 cytopathic effect for the following compounds
test system: Vero E6 infected with SARS-CoV-2; test: inhibition of SARS-CoV-2 cytopathic effect; higher = more antiviral protection, active = above 15; settings: 10000 nM; 48 h
Write the answer as a number in %, unit excluded.

| Compound | Data Value |
| --- | --- |
| Cc1cccc(C(=O)O)c1O [hydroxytoluic-acid] | -10.5 |
| CCOC(=O)CSCCC1NC(C(=O)O)CS1 (centres undefined) [letosteine] | 5.67 |
| CCCCOC(=O)c1ccccc1Nc1cccc(C(F)(F)F)c1 [ufenamate] | 0.16 |
| COc1ccnc2[nH]cc(C(=O)C(=O)N3CCN(C(=O)c4ccccc4)C[C@H]3C)c12 | 1.74 |
| COc1ccc(S(=O)(=O)N2c3ccc(Cl)cc3[C@](O)(c3ccccc3Cl)[C@@H]2C(=O)N2CCC[C@H]2C(N)=O)cc1OC [relcovaptan] | 2.72 |

For the compound shown here, O=C(O)[C@H](CC(=O)N1C[C@H]2CCCC[C@H]2C1)Cc1ccccc1 [mitiglinide] , give the reported inhibition of SARS-CoV-2 cytopathic effect. 1.67

Need inhibition of SARS-CoV-2 cytopathic effect, item COc1ccc([C@]2(C#N)CC[C@@H](C(=O)O)CC2)cc1OC1CCCC1 [cilomilast] -0.83

What inhibition of SARS-CoV-2 cytopathic effect value was documented for this compound, C=CCNc1c(O)cc2c(O)c1C[C@@H](C)C[C@H](OC)[C@H](O)[C@@H](C)/C=C(\C)[C@H](OC(N)=O)[C@@H](OC)/C=C\C=C(/C)C(=O)N2 [retaspimycin] ? 8.73

Given the entry O=C1CCCCCCCCCCCCCCO1 [oxacyclohexadecan-2-one] , report its measured inhibition of SARS-CoV-2 cytopathic effect. -1.21

---

Overview of recorded morphology score for various molecules
system: Vero E6 infected with SARS-CoV-2; test: morphology score (similarity to uninfected cells); higher = more like uninfected cells; settings: 24 h
Reply with the value as a number alone.

Consider the molecule shown here: Cn1nnc2c(C(N)=O)ncn2c1=O [temozolomide] (10 µM) What is its recorded morphology score? -0.0949

I have this molecule here, CCOC(=O)c1c(CSc2ccccc2)n(C)c2cc(Br)c(O)c(CN(C)C)c12 [arbidol] (10 µM) , and I need its recorded morphology score. 0.126

// query morphology score value for entry O=C1NC(=O)C(c2ccccc2[N+](=O)[O-])=C1Nc1ccc(O)c(Cl)c1 (10 µM) -0.00184

// returns reported morphology score for input COC(=O)C1=CO[C@@H](O[C@@H]2O[C@H](CO)[C@@H](O)[C@H](O)[C@H]2O)[C@@H]2C(CO)=CC[C@H]12 [geniposide] (10 µM) -0.322

Which morphology score reading was recorded for the molecule CCCNS(=O)(=O)Nc1ncnc(OCCOc2ncc(Br)cn2)c1-c1ccc(Br)cc1 [macitentan] (10 µM) ? -0.0952

---

system: Vero E6 infected with SARS-CoV-2; test: inhibition of SARS-CoV-2 cytopathic effect; higher = more antiviral protection, active = above 15; conditions: 8.33 nM; 48 h
A collection of compounds and their measured inhibition of SARS-CoV-2 cytopathic effect
Write the value in % as a bare number.

See these solved cases before continuing.
| Compound | Tested On | U | Data Value |
| --- | --- | --- | --- |
| COc1ccc(S(=O)(=O)Nc2nc(-c3cccc([N+](=O)[O-])c3)cs2)cc1OC | Vero E6 infected with SARS-CoV-2 | % | 4.04 |
| C[C@@H]1CN(Cc2ccc(F)cc2)CCN1C(=O)COc1ccc(Cl)cc1NC(N)=O | Vero E6 infected with SARS-CoV-2 | % | -0.1 |
| NC(=O)NC1NC(=O)NC1=O (stereo not given) | Vero E6 infected with SARS-CoV-2 | % | -1.51 |
| CCCCCCCCCCOc1cc2c(O)c(C(=O)OCC)cnc2cc1OCC [decoquinate] | Vero E6 infected with SARS-CoV-2 | % | -0.75 |

Then there is this compound:
If you can, please state the reported inhibition of SARS-CoV-2 cytopathic effect value of NCC(CC(=O)O)c1ccc(Cl)cc1 (stereo not given) . -1.56

Origin of the recorded values: the supplement of paper PMC13380429
